The entries below are paired with their reported normalized growth.
method-summary: chemical genetic growth profiling, strain panel (AID 1159580);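 also: tested at 20 µM; growth read once vehicle control cultures reached saturation at 30 °C; 1 = growth at the plate median or of vehicle wells; lower values mean less growth of the strain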
protocol-conditions: S. cerevisiae deletion strains, growth OD, locus YLR058C, strain SHM2, hits give low values
The campaign covered roughly 5,500 compounds. About 2,000 (36%) were called active. Not shown: some 18% with an inconclusive outcome. This is one part of the list.
measurement-type: normalized growth

• C[C@H]1O[C@@H](O[C@H]2[C@@H](O)C[C@H](O[C@H]3[C@@H](O)C[C@H](O[C@H]4CC[C@]5(C)C6CC[C@]7(C)[C@@H](C8=CC(=O)OC8)CC[C@]7(O)C6CC[C@@H]5C4)O[C@@H]3C)O[C@@H]2C)C[C@H](O)[C@@H]1O (stereo partly drawn) = 0.978
• COc1ccc(-c2cc(=O)c3c(O)cc(O)c(-c4cc(-c5cc(=O)c6c(O)cc(O)cc6o5)ccc4OC)c3o2)cc1 = 1
• CC1CCCC(C)N1NC(=O)c1ccc(Cl)c(S(N)(=O)=O)c1 (stereo not drawn) = 0.99
• NCCCCN = 1.01
• NC[C@@H]1O[C@H](O[C@@H]2[C@@H](CO)OC(O[C@@H]3[C@@H](O)[C@H](N)C[C@H](N)[C@H]3O[C@H]3O[C@H](CO)[C@@H](O)[C@H](O)[C@H]3N)[C@@H]2O)[C@H](N)[C@@H](O)[C@@H]1O (stereo partly drawn) = 0.978
• C[C@]12CC[C@H](O)C[C@H]1CCC1C2CC[C@]2(C)[C@@H](C3=CC(=O)OC3)[C@@H](O)C[C@]12O (stereo partly drawn) = 1.04
• Cc1ccccc1N1C(=O)c2cc(S(N)(=O)=O)c(Cl)cc2NC1C (stereo not drawn) = 0.987
• COc1cc(O)c2c(=O)cc(-c3ccc(OC)c(-c4c(O)cc(O)c5c(=O)cc(-c6ccc(O)cc6)oc45)c3)oc2c1 = 0.913
• C[C@]12CCC3C(CC[C@]4(O)C[C@@H](O)CC[C@]34C=O)[C@@]1(O)CCC2C1=CC(=O)OC1 (stereo partly drawn) = 0.989
• CC12CCC3C(CCC4(O)CC(O)CCC34/C=N/NC(N)=O)C1(O)CCC2C1=CC(=O)OC1 (stereo not drawn) = 1.02
• NC(=O)c1cc([N+](=O)[O-])cc([N+](=O)[O-])c1 = 1.01
• CN(C)CC[C@H](c1ccc(Cl)cc1)c1ccccn1 = 1
• COC1C(O)C(O[C@H]2CC[C@]3(C=O)C4C(CC[C@]3(O)C2)[C@@]2(O)CC[C@H](C3=CC(=O)OC3)[C@@]2(C)C[C@H]4OC(C)=O)OC(C)C1OC(C)=O (stereo partly drawn) = 1.02
• CC(=O)N1CCN(c2ccc(OCC3CO[C@](Cn4ccnc4)(c4ccc(Cl)cc4Cl)O3)cc2)CC1 (stereo partly drawn) = 0.072
• COc1cc(C)c2c(=O)c3c(O)cc(O)cc3oc2c1 = 0.941
• CC(=O)OC1CC[C@@]2(C)C(CCC3C2CC[C@]2(C)C(C4=CC(=O)OC4)C(OC(C)=O)CC32O)C1 (stereo partly drawn) = 1
• NC[C@H]1O[C@H](O[C@H]2[C@H](O)[C@@H](O[C@H]3O[C@H](CO)[C@@H](O)[C@H](N)[C@H]3O)[C@H](N)C[C@@H]2N)[C@H](N)[C@@H](O)[C@@H]1O = 0.999
• Cc1c(C(N)=O)cc([N+](=O)[O-])cc1[N+](=O)[O-] = 0.99
